Where do the numbers come from? From ChEMBL document CHEMBL5136995.

assay: Cmax in mouse at 200 mg/kg, po; type: ADME, organism-based; design: dose 200 mg/kg, route po; settings: in vivo
property.name: Cmax (µM)
Please respond with the number in µM and leave the unit unwritten.

Give the measured Cmax for O=C1N[C@](c2cccc(Nc3ccc(F)cc3)n2)(c2cccc(Nc3ccc(F)c(F)c3)n2)CC(O)=C1Sc1ccccc1Cl
117

###

assay: Volume of distribution at steady state in mouse at 1 mg/kg, iv; assay type: ADME, organism-based; details: in vivo, read-out: Vdss
property.name: Vd
For clarity, give the value followed by its unit.

Give the measured Vd for O=C1N[C@](c2cccc(Nc3ccc(F)cc3)n2)(c2cccc(Nc3ccc(F)c(F)c3)n2)CC(O)=C1Sc1ccccc1Cl
0.671 L/kg

###

Answer each item with its documented fraction unbound.
assay: Plasma protein binding in mouse; assay type: ADME, cell-free; conditions: read-out: PPB
The answer should be written as a number, with no unit following it.

Give the measured fraction unbound for O=C1NC(c2ccc(N3CCOCC3)cc2)(c2cccc(Oc3ccc(F)cc3)n2)CC(O)=C1Sc1ccccc1Cl (stereo in doubt; 50)
0.001

Give the measured fraction unbound for O=C1N[C@](c2cccc(Nc3ccc(F)cc3)n2)(c2cccc(Nc3ccc(F)c(F)c3)n2)CC(O)=C1Sc1ccccc1Cl
0.001

###

Answer each item with its documented logD.
assay: Lipophilicity, logD of compound; format: physicochemical; settings: octanol/water

Give the measured logD for O=C1NC(c2cccc(Nc3ccc(F)c(F)c3)n2)(c2cccc(NC3CCOCC3)n2)CC(O)=C1Sc1ccccc1Cl (stereo in doubt; 36)
2.4

Give the measured logD for O=C1NC(c2ccc(N3CCOCC3)cc2)(c2cccc(Nc3ccc(F)cc3)n2)CC(O)=C1Sc1ccccc1Cl (stereo in doubt; 48)
2

Give the measured logD for O=C1N[C@](c2cccc(Nc3ccc(F)cc3)n2)(c2cccc(Nc3ccc(F)c(F)c3)n2)CC(O)=C1Sc1ccccc1Cl
2.2

Give the measured logD for O=C1NC(c2cccc(Nc3ccc(F)c(F)c3)n2)(c2cccc(Oc3ccccc3)n2)CC(O)=C1Sc1ccccc1Cl (stereo in doubt; 44)
2.6

Give the measured logD for O=C1NC(c2cccc(Nc3ccc(F)c(F)c3)n2)(c2cccc(Oc3cccc4ncccc34)n2)CC(O)=C1Sc1ccccc1Cl (stereo in doubt; 46)
2.2

Give the measured logD for O=C1NC(c2cccc(Nc3ccc(F)c(F)c3)n2)(c2cccc(NC3CCCCC3)n2)CC(O)=C1Sc1ccccc1Cl (stereo in doubt; 34)
2.6

Give the measured logD for O=C1NC(c2cccc(NCc3ccc(F)cc3)n2)(c2cccc(Nc3ccc(F)c(F)c3)n2)CC(O)=C1Sc1ccccc1Cl (stereo in doubt; 42)
2.5

Give the measured logD for O=C1NC(c2ccsc2)(c2cccc(Nc3ccc(F)c(F)c3)n2)CC(O)=C1Sc1ccccc1Cl (stereo in doubt; 38)
1.1

Give the measured logD for O=C1NC(c2ccc(N3CCOCC3)cc2)(c2cccc(Oc3ccc(F)cc3)n2)CC(O)=C1Sc1ccccc1Cl (stereo in doubt; 50)
1.9

###

experiment: Cmax in mouse at 100 mg/kg, po; format: ADME, organism-based; design: dose 100 mg/kg, route po; conditions: in vivo
property.name: Cmax (µM)
Please respond with the number in µM and leave the unit unwritten.

Give the measured Cmax for O=C1N[C@](c2cccc(Nc3ccc(F)cc3)n2)(c2cccc(Nc3ccc(F)c(F)c3)n2)CC(O)=C1Sc1ccccc1Cl
66.9

###

assay: AUC in mouse at 1 mg/kg, iv; format: ADME, organism-based; set-up: dose 1 mg/kg, route iv; conditions: in vivo
property.name: AUC (µM·h)
Please respond with the number in µM·h and leave the unit unwritten.

Give the measured AUC for O=C1N[C@](c2cccc(Nc3ccc(F)cc3)n2)(c2cccc(Nc3ccc(F)c(F)c3)n2)CC(O)=C1Sc1ccccc1Cl
6.5

###

target: UniProt:P07195
Sequence (P07195 whole entry): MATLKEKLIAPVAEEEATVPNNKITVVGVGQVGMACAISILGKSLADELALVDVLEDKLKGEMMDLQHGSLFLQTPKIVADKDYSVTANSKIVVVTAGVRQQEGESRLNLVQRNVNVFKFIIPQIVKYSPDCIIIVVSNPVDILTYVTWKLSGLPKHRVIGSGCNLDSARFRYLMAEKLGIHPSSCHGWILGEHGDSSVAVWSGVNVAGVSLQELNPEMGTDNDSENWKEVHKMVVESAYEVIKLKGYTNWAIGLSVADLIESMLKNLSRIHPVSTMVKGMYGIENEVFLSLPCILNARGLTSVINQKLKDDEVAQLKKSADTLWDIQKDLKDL
Answer each item with its documented IC50.
Please respond with the number in nM and leave the unit unwritten.

Give the measured IC50 for Nc1cccc(C2(c3ccccc3)CC(O)=C(Sc3ccccc3Cl)C(=O)O2)c1 (stereo in doubt; 22)
250

Give the measured IC50 for O=C1OC(c2ccccn2)(c2ccccn2)CC(O)=C1Sc1ccccc1Cl
2900

Give the measured IC50 for O=C1NC(c2cccc(Nc3ccc(F)c(F)c3)n2)(c2cccc(Oc3cccc4ncccc34)n2)CC(O)=C1Sc1ccccc1Cl (stereo in doubt; 46)
25

Give the measured IC50 for O=C1OC(c2ccccc2)(c2cccs2)CC(O)=C1Sc1ccccc1Cl (stereo in doubt; 8)
1500

Give the measured IC50 for Nc1cccc(C2(c3ccccc3)CC(O)=C(Sc3ccccc3Cl)C(=O)O2)c1 (stereo in doubt; 23)
3800

Give the measured IC50 for O=C1OC(c2ccsc2)(c2ccccn2)CC(O)=C1Sc1ccccc1Cl (stereo in doubt; 12)
3200

###

experiment: Clearance in mouse at 1 mg/kg, iv; assay type: ADME, organism-based; details: in vivo
property.name: clearance (mL/min/kg)
Please respond with the number in mL/min/kg and leave the unit unwritten.

Give the measured clearance for O=C1N[C@](c2cccc(Nc3ccc(F)cc3)n2)(c2cccc(Nc3ccc(F)c(F)c3)n2)CC(O)=C1Sc1ccccc1Cl
4.89

###

assay: AUC in mouse at 200 mg/kg, po; assay type: ADME, organism-based; parameters: dose 200 mg/kg, route po; settings: in vivo
property.name: AUC

Give the measured AUC for O=C1N[C@](c2cccc(Nc3ccc(F)cc3)n2)(c2cccc(Nc3ccc(F)c(F)c3)n2)CC(O)=C1Sc1ccccc1Cl
411 µM·h

###

assay: AUC in mouse at 100 mg/kg, po; assay type: ADME, organism-based; set-up: dose 100 mg/kg, route po; conditions: in vivo
property.name: AUC (µM·h)
Please respond with the number in µM·h and leave the unit unwritten.

Give the measured AUC for O=C1N[C@](c2cccc(Nc3ccc(F)cc3)n2)(c2cccc(Nc3ccc(F)c(F)c3)n2)CC(O)=C1Sc1ccccc1Cl
235

###

assay: Cmax in mouse at 5 mg/kg, po; type: ADME, organism-based; design: dose 5 mg/kg, route po; conditions: in vivo
property.name: Cmax (µM)
Please respond with the number in µM and leave the unit unwritten.

Give the measured Cmax for O=C1N[C@](c2cccc(Nc3ccc(F)cc3)n2)(c2cccc(Nc3ccc(F)c(F)c3)n2)CC(O)=C1Sc1ccccc1Cl
5.95

###

assay: AUC in mouse at 50 mg/kg, po; assay type: ADME, organism-based; parameters: dose 50 mg/kg, route po; settings: in vivo
property.name: AUC (µM·h)
Please respond with the number in µM·h and leave the unit unwritten.

Give the measured AUC for O=C1N[C@](c2cccc(Nc3ccc(F)cc3)n2)(c2cccc(Nc3ccc(F)c(F)c3)n2)CC(O)=C1Sc1ccccc1Cl
71.2

###

A short record of pIC50 observed with L-lactate dehydrogenase A chain (Homo sapiens, UniProt P00338) follows.
pIC50 here: minus log base 10 of the concentration, concentration in moles per litre.

Give the measured pIC50 for O=C1NC(c2cccc(Nc3ccc(F)c(F)c3)n2)(c2cccc(NC3CCOCC3)n2)CC(O)=C1Sc1ccccc1Cl (stereo in doubt; 37)
7.26

Give the measured pIC50 for Nc1cccc(C2(c3ccsc3)CC(O)=C(Sc3ccccc3Cl)C(=O)O2)c1 (stereo in doubt; 21)
6.72

Give the measured pIC50 for O=C1NC(c2cccc(Nc3ccc(F)c(F)c3)n2)(c2cccc(Oc3cccc4ncccc34)n2)CC(O)=C1Sc1ccccc1Cl (stereo in doubt; 47)
7.17

Give the measured pIC50 for O=C1OC(c2ccccc2)(c2ccccc2O)CC(O)=C1Sc1ccccc1Cl (stereo in doubt; 14)
7.59

Give the measured pIC50 for O=C1OC(c2ccsc2)(c2ccccc2F)CC(O)=C1Sc1ccccc1Cl (stereo in doubt; 18)
6.66

Give the measured pIC50 for O=C1OC(c2ccccc2)(c2ccccn2)CC(O)=C1Sc1ccccc1Cl (stereo in doubt; 2)
6.04

Give the measured pIC50 for O=C1OC(c2ccccc2)(c2cscn2)CC(O)=C1Sc1ccccc1Cl (stereo in doubt; 10)
5.96

Give the measured pIC50 for O=C1O[C@](c2ccsc2)(c2cccc(Nc3ccc(F)cc3)c2)CC(O)=C1Sc1ccccc1Cl
7.44

Give the measured pIC50 for O=C1OC(c2ccccc2)(c2cccs2)CC(O)=C1Sc1ccccc1Cl (stereo in doubt; 7)
6.92

Give the measured pIC50 for O=C1OC(c2ccsc2)(c2ccccc2O)CC(O)=C1Sc1ccccc1Cl (stereo in doubt; 17)
7.66

Give the measured pIC50 for O=C1OC(c2cccs2)(c2cccs2)CC(O)=C1Sc1ccccc1Cl
7.05

Give the measured pIC50 for O=C1NC(c2ccsc2)(c2cccc(Nc3ccc(F)c(F)c3)n2)CC(O)=C1Sc1ccccc1Cl (stereo in doubt; 38)
8.00

Give the measured pIC50 for O=C1NC(c2cccc(Nc3ccc(F)c(F)c3)n2)(c2cccc(NC3CCCCC3)n2)CC(O)=C1Sc1ccccc1Cl (stereo in doubt; 34)
9.05

Give the measured pIC50 for O=C1NC(c2ccsc2)(c2cccc(Nc3ccc(F)c(F)c3)n2)CC(O)=C1Sc1ccccc1Cl (stereo in doubt; 39)
7.12

Give the measured pIC50 for O=C1OC(c2ccccc2)(c2ccsc2)CC(O)=C1Sc1ccccc1Cl (stereo in doubt; 6)
6.37

Give the measured pIC50 for Nc1cccc(C2(c3ccccc3)CC(O)=C(Sc3ccccc3Cl)C(=O)O2)c1 (stereo in doubt; 22)
6.89

Give the measured pIC50 for O=C1OC(c2ccccc2)(c2ccccc2)CC(O)=C1Sc1ccccc1Cl
6.00

Give the measured pIC50 for O=C1NC(c2cccc(Nc3ccc(F)c(F)c3)n2)(c2cccc(Oc3ccccc3)n2)CC(O)=C1Sc1ccccc1Cl (stereo in doubt; 45)
8.49

Give the measured pIC50 for O=C1NC(c2ccc(N3CCOCC3)cc2)(c2cccc(Oc3ccc(F)cc3)n2)CC(O)=C1Sc1ccccc1Cl (stereo in doubt; 51)
7.43

Give the measured pIC50 for O=C1NC(c2cccc(Nc3ccc(F)c(F)c3)n2)(c2cccc(Oc3ccccc3)n2)CC(O)=C1Sc1ccccc1Cl (stereo in doubt; 44)
8.60

Give the measured pIC50 for O=C1OC(c2ccsc2)(c2ccccc2F)CC(O)=C1Sc1ccccc1Cl (stereo in doubt; 19)
6.35

Give the measured pIC50 for O=C1OC(c2ccccc2)(c2ccccc2O)CC(O)=C1Sc1ccccc1Cl (stereo in doubt; 15)
6.37

Give the measured pIC50 for O=C1OC(c2ccccc2)(c2ccsc2)CC(O)=C1Sc1ccccc1Cl (stereo in doubt; 5)
7.05

Give the measured pIC50 for O=C1OC(c2ccsc2)(c2ccccn2)CC(O)=C1Sc1ccccc1Cl (stereo in doubt; 11)
6.89

Give the measured pIC50 for Nc1cccc(C2(c3ccsc3)CC(O)=C(Sc3ccccc3Cl)C(=O)O2)c1 (stereo in doubt; 20)
7.89

Give the measured pIC50 for O=C1NC(c2cccc(NCCC3CC3)n2)(c2cccc(Nc3ccc(F)c(F)c3)n2)CC(O)=C1Sc1ccccc1Cl (stereo in doubt; 40)
7.89

Give the measured pIC50 for O=C1OC(c2ccsc2)(c2cccc(Nc3ccc(F)cc3)n2)CC(O)=C1Sc1ccccc1Cl (stereo in doubt; 31)
8.16

Give the measured pIC50 for O=C1OC(c2ccccn2)(c2ccccn2)CC(O)=C1Sc1ccccc1Cl
5.92
